biological target: T1, human MSLN-R3-his protein (human, UniProt Q13421 487-598); assay: ELISA on coated MSLN-R3; antibody 1 nM
T1 construct: Region 3 of human mesothelin, made in HEK293E cells, His-tagged; also called human MSLN-R3 protein; hMSLN-R3-his; not shown: His tag
T1 sequence (Q13421 495-606): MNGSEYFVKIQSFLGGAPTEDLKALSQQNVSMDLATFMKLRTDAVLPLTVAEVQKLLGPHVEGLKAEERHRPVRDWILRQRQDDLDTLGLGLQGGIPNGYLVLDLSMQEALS

{"columns": ["binder", "OD450 (OD450)"],
 "data": [
  ["S009-F8-31.22 (antibody, human IgG1, kappa, V domains shown) VH: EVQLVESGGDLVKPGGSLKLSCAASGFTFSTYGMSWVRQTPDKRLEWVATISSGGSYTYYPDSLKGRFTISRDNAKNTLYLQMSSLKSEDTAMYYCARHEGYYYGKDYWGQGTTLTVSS VL: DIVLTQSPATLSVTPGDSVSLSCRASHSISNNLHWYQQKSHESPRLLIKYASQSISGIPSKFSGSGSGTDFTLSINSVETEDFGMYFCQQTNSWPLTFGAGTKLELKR", 0.05],
  ["S009-F8-15.19 (antibody, human IgG1, kappa, V domains shown) VH: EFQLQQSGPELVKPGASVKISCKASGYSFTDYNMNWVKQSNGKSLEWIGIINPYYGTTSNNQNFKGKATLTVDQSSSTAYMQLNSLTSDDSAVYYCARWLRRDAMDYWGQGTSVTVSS VL: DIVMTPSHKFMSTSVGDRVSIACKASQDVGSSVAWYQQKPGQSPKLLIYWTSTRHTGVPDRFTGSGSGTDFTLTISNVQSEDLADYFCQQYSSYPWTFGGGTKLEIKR", 0.04],
  ["S009-F8-5.15 (antibody, human IgG1, kappa, V domains shown) VH: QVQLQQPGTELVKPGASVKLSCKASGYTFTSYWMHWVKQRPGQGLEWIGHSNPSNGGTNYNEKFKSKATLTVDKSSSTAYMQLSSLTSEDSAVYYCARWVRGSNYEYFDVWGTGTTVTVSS VL: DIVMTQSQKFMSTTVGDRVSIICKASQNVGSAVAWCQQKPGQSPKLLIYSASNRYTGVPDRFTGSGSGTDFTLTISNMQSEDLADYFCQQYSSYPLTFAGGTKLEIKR", 0.04],
  ["S009-F8-33.12 (antibody, human IgG1, kappa, V domains shown) VH: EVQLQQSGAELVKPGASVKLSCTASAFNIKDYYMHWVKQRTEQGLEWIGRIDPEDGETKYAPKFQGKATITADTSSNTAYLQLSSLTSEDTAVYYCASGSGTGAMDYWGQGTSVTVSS VL: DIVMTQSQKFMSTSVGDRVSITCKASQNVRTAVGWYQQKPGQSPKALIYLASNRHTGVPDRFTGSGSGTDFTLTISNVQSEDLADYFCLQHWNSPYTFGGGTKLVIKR", 0.04],
  ["Tab106 (YP218, hIgG1) (antibody, V domains shown, also called YP218 human IgG1 antibody) VH: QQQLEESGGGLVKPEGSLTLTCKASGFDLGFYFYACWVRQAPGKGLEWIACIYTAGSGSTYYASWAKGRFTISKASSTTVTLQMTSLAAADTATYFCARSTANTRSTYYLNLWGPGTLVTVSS VL: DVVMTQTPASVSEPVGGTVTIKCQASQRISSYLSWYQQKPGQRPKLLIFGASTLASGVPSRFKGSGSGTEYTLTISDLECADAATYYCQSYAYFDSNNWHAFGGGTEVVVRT", 1.99]
]}
